- System: P388 leukemia ip, CD2F1 mice, survival T/C
- methodSummary: NCI In Vivo Anticancer Drug Screen. Data for tumor model P388 Leukemia (intraperitoneal) in CD2F1 (CDF1) mice
- testSettings: endpoint: median survival time; dose: 100.0 mg/kg/injection; schedule: Q04DX003 (ip); vehicle: saline
Toxic doses and inconclusive results are not listed. How the source made its calls: active means survival T/C of 150% or more; inactive means T/C below 125% in these data.
Outcome codes: Y (active), N (inactive)

>>> grouplabel("COc1cc2cccnc2c2[nH]c(=O)c3c(c12)CCC3")
"N"
>>> grouplabel("COc1cc2c(cc1O)-c1[nH]ncc1CCC2")
"N"
>>> grouplabel("CCCCCCCC/C=C/CCCCCCCCCCCCBr")
"N"
>>> grouplabel("O=c1ccn2c(n1)OC1C(O)C(CO)OC12 (centres undefined)")
"N"
>>> grouplabel("CCCOC(=O)C1(N)CCCC1")
"N"
>>> grouplabel("C=COc1ccccc1C1=NC(C(C)(C)C)(C(C)(C)C)P(OC)(OC)(OC)O1")
"N"
>>> grouplabel("Nc1nc2c(c(=O)[nH]1)[N+]1=CN(c3ccc(C(=O)NC(CCC(=O)O)C(=O)O)cc3)CC1CC2 (centres undefined)")
"N"
>>> grouplabel("CN1/C(=C2\\C=CC=C\\C2=N/S(=O)(=O)c2ccc(Cl)cc2)Sc2ccccc21")
"N"
>>> grouplabel("COc1nc(/C=C/c2ccccc2)c([N+](=O)[O-])c(OC)n1")
"N"
>>> grouplabel("CC1CN1P(=O)(OCCCl)N1CC1C (centres undefined)")
"N"
>>> grouplabel("CC1(C)N=C(N)N=C(N)N1c1ccc(CNC(=O)Nc2ccc(S(=O)(=O)F)cc2)cc1")
"Y"
>>> grouplabel("CN(C)CCCn1c2ccccc2c2cnccc21")
"N"
>>> grouplabel("Cc1ccc(S(=O)(=O)/C=C/C(=O)c2ccc3ccccc3c2)cc1")
"N"
>>> grouplabel("CCCCNC(C)(C)C(SSSC(c1ccco1)C(C)(C)NCCCC)c1ccco1 (centres undefined)")
"N"

---

- Test system: P388 leukemia ip, CD2F1 mice, survival T/C
- methodSummary: NCI In Vivo Anticancer Drug Screen. Data for tumor model P388 Leukemia (intraperitoneal) in CD2F1 (CDF1) mice
- testSettings: endpoint: median survival time; dose: 200.0 mg/kg/injection; schedule: Q04DX003 (ip); vehicle: saline with Tween-80; higher = longer survival
Inconclusive results and toxic doses are left out.
readout: T/C

>>> recordedvalue("COc1cc(/C=C(\\C)[N+](=O)[O-])cc(Br)c1O")
"109 % of control"
>>> recordedvalue("O=S1(=O)C=C(Br)CO1")
"106 % of control"
>>> recordedvalue("Cn1c(=O)ccc2ccc(N(CCO)CCO)nc21")
"103 % of control"
>>> recordedvalue("O=C(O)C(c1ccccc1)C1CCCC1 (stereo not given)")
"105 % of control"
>>> recordedvalue("CCCCCCC(Cn1ccnc1)c1ccc(Br)cc1 (stereo not given)")
"91 % of control"
>>> recordedvalue("CC(C)CCOC(=O)CN(CC(=O)OCCC(C)C)c1ccccc1")
"100 % of control"
>>> recordedvalue("CNCCCCCc1cc(-c2ccc([N+](=O)[O-])cc2)on1")
"100 % of control"
>>> recordedvalue("CCN(CC)CC(COC)Oc1cc(C)ccc1C(C)C (stereo not given)")
"109 % of control"
>>> recordedvalue("CC1(c2ccco2)NC(=O)NC1=O (stereo not given)")
"100 % of control"
>>> recordedvalue("COc1cccc(C(=O)O)c1OC")
"100 % of control"

---

- Tested on: P388 leukemia ip, CD2F1 mice, survival T/C
- methodSummary: NCI In Vivo Anticancer Drug Screen. Data for tumor model P388 Leukemia (intraperitoneal) in CD2F1 (CDF1) mice
- testSettings: endpoint: median survival time; dose: 25.0 mg/kg/injection; schedule: Q01DX009 (ip); vehicle: saline with Tween-80
- Procedure: The antitumor activity of compounds was measured in mice bearing transplantable tumors. Survival or tumor size were measured and the results are expressed as the measurement made in the treated group (T) divided by the measurement made in the vehicle treated control group (C). The tumor model used in this assay is P388 Leukemia (intraperitoneal) in CD2F1 (CDF1) mice
Toxic doses and inconclusive results are not listed. How the source made its calls: active means survival T/C of 150% or more; inactive means T/C below 125% in these data.
Outcome codes: True = active, False = inactive

>>> grouplabel("CN1C(=O)N(C)C2(C#N)CC2([N+](=O)[O-])C1=O (configuration not stated)")
"False"
>>> grouplabel("CS(=O)(=O)OCCN(CCOS(C)(=O)=O)c1ccc(N=Nc2ccccc2)cc1")
"True"
>>> grouplabel("Cc1cc(N)c(C)c(C)c1O")
"False"
>>> grouplabel("NNC(=O)CCCCCCCCCCCCCCCO")
"False"
>>> grouplabel("O=C(C#Cc1ccccc1)c1ccccc1")
"False"
>>> grouplabel("C=C1CC2CCC1C2 (configuration not stated)")
"False"
>>> grouplabel("O=C(CCCBr)c1ccccc1")
"False"
>>> grouplabel("Cc1ccc(N=NN(C)C)cc1")
"False"
>>> grouplabel("CC(=O)NC(=S)Nc1cccs1")
"False"
>>> grouplabel("OC(c1cc2cc(Br)ccc2c2cc(Br)ccc12)C1CCCCN1 (configuration not stated)")
"False"
>>> grouplabel("Cc1cc(NCCO)nc2c1ccc1ccccc12")
"False"
>>> grouplabel("O=C(OC12CCCCC1C1(CCCCC1)N=N2)c1ccccc1 (configuration not stated)")
"False"
>>> grouplabel("CS(=O)(=O)c1cc(=O)[nH]c(=O)[nH]1")
"False"
>>> grouplabel("Oc1ccc(C2(c3ccc(O)c(Cl)c3)CC3CCC2C3)cc1Cl (configuration not stated)")
"False"
>>> grouplabel("CN1C(=O)N(C2CCCCC2)C(=O)C(C)(CN2CCCCC2)C1=O (configuration not stated)")
"False"
>>> grouplabel("CC(C)=CCC/C(C)=C\\CCl")
"False"
>>> grouplabel("Cc1cc(N)ccc1Cl")
"False"
>>> grouplabel("[C-]#[N+]C([N+]#[C-])=C(C)OCC")
"False"
>>> grouplabel("C[N+]1(C)N=C([O-])N(c2ccccc2C(F)(F)F)C1=O")
"False"
>>> grouplabel("CCCCNCC(O)c1cc2c(Cl)cc(Cl)cc2c2cc(C(F)(F)F)ccc12 (configuration not stated)")
"False"
>>> grouplabel("C1CN=C(N2CCCC2)C1")
"False"
>>> grouplabel("CC(=O)OC/C=C(\\C)CC(/C=C(C)/C=C/C1=C(C)CCCC1(C)C)S(=O)(=O)c1ccccc1 (configuration not stated)")
"False"
>>> grouplabel("NC(=S)N/N=C/c1ccncc1")
"False"
>>> grouplabel("CCCCNCCC(=O)c1ccc(Cl)cc1")
"False"
>>> grouplabel("O=C(Nc1ccc(NC(=O)C(Cl)(Cl)Cl)cc1)C(Cl)(Cl)Cl")
"False"
>>> grouplabel("O=C1OC2C(I)C3CC1C2C3 (configuration not stated)")
"False"
>>> grouplabel("O=C1OC(=O)[C@H]2[C@@H]1[C@H]1C=C[C@@H]2OC1=O")
"False"

---

- Test system: P388 leukemia ip, CD2F1 mice, survival T/C
- methodSummary: NCI In Vivo Anticancer Drug Screen. Data for tumor model P388 Leukemia (intraperitoneal) in CD2F1 (CDF1) mice
- testSettings: endpoint: median survival time; dose: 50.0 mg/kg/injection; schedule: Q01DX005 (ip); vehicle: saline; higher = longer survival
Inconclusive results and toxic doses are left out.
readout: T/C

>>> recordedvalue("CCN(CC)CCCNc1nccc2ccc(OC)cc12")
"99 % of control"
>>> recordedvalue("CC(C)[C@@H]1CC[C@@H](C)C[C@H]1N")
"100 % of control"
>>> recordedvalue("Nc1ccc(C(=O)Nc2ccc(C(=O)Nc3ccc4cc(S(=O)(=O)O)cc(S(=O)(=O)O)c4c3)cc2)cc1")
"103 % of control"
>>> recordedvalue("C[n+]1c(C[n+]2ccccc2)ccc2ccccc21")
"105 % of control"
>>> recordedvalue("O=C1CN(CCCN2CCOCC2)CC(=O)N2CCCCN12")
"100 % of control"
>>> recordedvalue("CCCN=C(C)NO")
"98 % of control"
>>> recordedvalue("COc1ccc(C(=O)CCN(C)C)c2ccccc12")
"102 % of control"
>>> recordedvalue("CC(C)NC1(N(C)C)N=C(N(C)C)N=C(N(C)C)O1 (stereo not drawn)")
"101 % of control"
>>> recordedvalue("CCC(C)NC1(N(C)C)N=C(N(C)C)N=C(N(C)C)O1 (stereo not drawn)")
"101 % of control"
>>> recordedvalue("CN1C2C=C(c3ccc(C(F)(F)F)cc3)CC1CC2 (stereo not drawn)")
"102 % of control"
>>> recordedvalue("COC1(OC)C=NNc2nncn21")
"105 % of control"
>>> recordedvalue("NC(CP(=O)(O)O)C(=O)O (stereo not drawn)")
"106 % of control"
>>> recordedvalue("c1ccc(C23CCCCC2=Nc2ccccc23)cc1 (stereo not drawn)")
"104 % of control"

Data provenance is PubChem BioAssay AID330.
